Each recorded value in this set is attributed to paper PMC10397247.

Target: T1, P6SC2
T1 chain: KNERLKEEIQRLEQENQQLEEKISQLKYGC
Assay: two-hybrid library CC1;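 note: natural log of median RNA to DNA barcode read ratio; higher means stronger binding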
Conditions: mean of both orientations
Answer each item with its documented interaction score.
Output: the number by itself.

Recorded interaction score of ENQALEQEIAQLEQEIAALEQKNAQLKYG [P11] , please. -2.64

Recorded interaction score of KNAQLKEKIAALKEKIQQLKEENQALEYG [P12] , please. -2.47

Recorded interaction score of ENSQLEEKISQLKQKNSQLKEEIQQLEYG [P5mS] , please. 0.207

Recorded interaction score of SPEDKNAALKEEIQALEEENQALEEKIAQLKYG [P6] , please. -2.56

Recorded interaction score of ENARLEEKIRQLKQKNSQLKEEIQQLEYGC [P5SC2] , please. 0.408

Recorded interaction score of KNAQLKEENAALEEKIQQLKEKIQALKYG [P10] , please. -2.28

Recorded interaction score of KNSQLKEEIQQLEEENQQLEEKIRQLKYGC [P6SC1] , please. -2.43

Recorded interaction score of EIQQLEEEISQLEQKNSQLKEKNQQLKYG [P3mS] , please. -2.5

Recorded interaction score of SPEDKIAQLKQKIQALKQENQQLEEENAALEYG [P4] , please. -2.66

Recorded interaction score of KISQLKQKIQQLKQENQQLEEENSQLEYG [P4mS] , please. -2.64

Recorded interaction score of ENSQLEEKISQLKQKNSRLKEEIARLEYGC [P5SC1] , please. 0.373

Recorded interaction score of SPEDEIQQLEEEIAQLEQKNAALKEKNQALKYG [P3] , please. -2.04

Recorded interaction score of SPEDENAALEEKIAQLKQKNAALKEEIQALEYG [P5] , please. 0.252
